Here, each record is paired with measured MIC data.
tested on: Escherichia coli; assay: Antibacterial activity against Escherichia coli after 24 hrs by MTT colorimetric method; type: functional
Write the answer as a number in µg/mL, unit excluded.

Examples with answers:
{"Molecule": "CC(C/N=C/c1cc(Cl)ccc1O)/N=C/c1cc(Cl)ccc1O (configuration not stated)", "Recorded Number": 4.9}
{"Molecule": "Oc1ccc(Cl)cc1/C=N/Cc1ccco1", "Recorded Number": 5.7}

# evaluate next
-- ask I would be grateful if you could share the reported MIC for "Oc1ccc(Cl)cc1/C=N/C1CCCCC1" .
-- reply 48.6

====

tested on: Escherichia coli; assay: Antibacterial activity against Escherichia coli after 24 hrs by MTT colorimetric method; assay type: functional
Here, each record is paired with measured MIC data.

Examples with answers:
{"Smiles Data": "CCN(CC)CCC/N=C/c1cc(Cl)ccc1O", "Result": "> 50 µg/mL"}
{"Smiles Data": "CC1(C)CC(/N=C/c2cc(Cl)ccc2O)CC(C)(C)N1", "Result": "> 50 µg/mL"}
{"Smiles Data": "CN(CCC/N=C/c1cc(Cl)ccc1O)CCC/N=C/c1cc(Cl)ccc1O", "Result": "> 50 µg/mL"}
{"Smiles Data": "O=[N+]([O-])c1ccc(/N=C/c2cc(Cl)ccc2O)cc1", "Result": "> 50 µg/mL"}
{"Smiles Data": "CC(=O)N1CCN(c2ccc(OC[C@H]3CO[C@](Cn4ccnc4)(c4ccc(Cl)cc4Cl)O3)cc2)CC1", "Result": "> 50 µg/mL"}
{"Smiles Data": "Oc1ccc(Cl)cc1/C=N/CCN1CCOCC1", "Result": "3.5 µg/mL"}
{"Smiles Data": "Oc1ccc(Cl)cc1/C=N/CCCN1CCOCC1", "Result": "> 50 µg/mL"}
{"Smiles Data": "CN(C)CCC/N=C/c1cc(Cl)ccc1O", "Result": "> 50 µg/mL"}

-- ask I would be grateful if you could share the reported MIC for "Oc1ccc(Cl)cc1/C=N/CC/N=C/c1cc(Cl)ccc1O" .
-- reply > 50 µg/mL

-- ask Now this one: "Oc1ccc(Cl)cc1/C=N/Cc1ccc(F)cc1"
-- reply 1.6 µg/mL

-- ask Now this one: "Oc1ccc(Cl)cc1/C=N/C1CCCC1"
-- reply 4.1 µg/mL

====

system: Escherichia coli; assay: Antibacterial activity against Escherichia coli after 24 hrs by MTT colorimetric method; assay type: functional
Metric Name: MIC

-- ask I would be grateful if you could share the reported MIC for "Oc1ccc(Cl)cc1/C=N/CCC/N=C/c1cc(Cl)ccc1O" .
-- reply 5 mg/L

-- ask Now this one: "OCC/N=C/c1cc(Cl)ccc1O"
-- reply > 50 mg/L

-- ask Now this one: "Oc1ccc(CC/N=C/c2cc(Cl)ccc2O)cc1"
-- reply > 50 mg/L
